Target: Tyrosine-protein kinase receptor TYRO3 (Homo sapiens) (UniProt Q06418)
Sequence (Q06418 whole entry): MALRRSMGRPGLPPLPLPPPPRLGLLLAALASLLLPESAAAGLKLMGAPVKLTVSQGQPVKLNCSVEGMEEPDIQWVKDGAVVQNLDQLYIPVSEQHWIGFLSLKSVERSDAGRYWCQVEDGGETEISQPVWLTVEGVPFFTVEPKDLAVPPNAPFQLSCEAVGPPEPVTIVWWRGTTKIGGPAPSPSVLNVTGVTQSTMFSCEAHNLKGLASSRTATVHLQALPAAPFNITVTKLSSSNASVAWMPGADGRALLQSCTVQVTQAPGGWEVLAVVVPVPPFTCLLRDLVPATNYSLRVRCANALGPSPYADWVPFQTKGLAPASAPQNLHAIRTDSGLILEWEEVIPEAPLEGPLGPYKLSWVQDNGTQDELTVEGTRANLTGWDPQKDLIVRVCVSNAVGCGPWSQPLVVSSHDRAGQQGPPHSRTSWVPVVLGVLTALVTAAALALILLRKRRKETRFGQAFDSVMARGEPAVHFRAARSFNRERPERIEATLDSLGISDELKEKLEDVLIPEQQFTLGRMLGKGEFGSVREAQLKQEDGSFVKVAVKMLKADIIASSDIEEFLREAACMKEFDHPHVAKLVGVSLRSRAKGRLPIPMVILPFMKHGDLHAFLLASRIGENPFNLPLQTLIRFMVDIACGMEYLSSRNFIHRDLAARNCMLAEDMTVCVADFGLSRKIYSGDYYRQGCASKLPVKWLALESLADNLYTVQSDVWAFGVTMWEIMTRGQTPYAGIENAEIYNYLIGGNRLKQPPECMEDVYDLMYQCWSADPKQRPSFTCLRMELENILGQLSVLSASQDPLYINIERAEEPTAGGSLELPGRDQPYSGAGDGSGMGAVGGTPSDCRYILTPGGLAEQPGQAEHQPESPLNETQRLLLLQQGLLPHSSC
Conditions: at 1 µM
For each entry below, report its residual activity value.
Just the number please, in %, no unit attached.

Indicate its recorded residual activity; the compound in question is O=c1[nH]c2ccccc2n1C1CCN(Cc2ccc(-c3nc4cc5[nH]cnc5cc4nc3-c3ccccc3)cc2)CC1 91

Output measured residual activity for this item: COC(=O)[C@@]1(O)C[C@H]2O[C@]1(C)n1c3ccccc3c3c4c(c5c6ccccc6n2c5c31)C(=O)NC4 6

Item COc1ccc2c(c1)/C(=C/c1cnc[nH]1)C(=O)N2 : provide residual activity 97

For CCc1nc(-c2ccc(OC)cc2)[nH]c1-c1ccncc1 , write its residual activity. 107

For the compound O=C1c2ccccc2-c2nc3nnnn3nc21 , give its measured residual activity value. 106

// Input: COc1ccc2c(c[n+](C)c3c4cc5c(cc4ccc23)OCO5)c1OC . Output its residual activity only. 89

Assign residual activity to the following record: CC(C)[C@H](CO)Nc1nc(Nc2cccc(Cl)c2)c2ncn(C(C)C)c2n1 85

* * *

Biological target: Maternal embryonic leucine zipper kinase (Homo sapiens) (UniProt Q14680)
Sequence (Q14680 whole entry, looked up): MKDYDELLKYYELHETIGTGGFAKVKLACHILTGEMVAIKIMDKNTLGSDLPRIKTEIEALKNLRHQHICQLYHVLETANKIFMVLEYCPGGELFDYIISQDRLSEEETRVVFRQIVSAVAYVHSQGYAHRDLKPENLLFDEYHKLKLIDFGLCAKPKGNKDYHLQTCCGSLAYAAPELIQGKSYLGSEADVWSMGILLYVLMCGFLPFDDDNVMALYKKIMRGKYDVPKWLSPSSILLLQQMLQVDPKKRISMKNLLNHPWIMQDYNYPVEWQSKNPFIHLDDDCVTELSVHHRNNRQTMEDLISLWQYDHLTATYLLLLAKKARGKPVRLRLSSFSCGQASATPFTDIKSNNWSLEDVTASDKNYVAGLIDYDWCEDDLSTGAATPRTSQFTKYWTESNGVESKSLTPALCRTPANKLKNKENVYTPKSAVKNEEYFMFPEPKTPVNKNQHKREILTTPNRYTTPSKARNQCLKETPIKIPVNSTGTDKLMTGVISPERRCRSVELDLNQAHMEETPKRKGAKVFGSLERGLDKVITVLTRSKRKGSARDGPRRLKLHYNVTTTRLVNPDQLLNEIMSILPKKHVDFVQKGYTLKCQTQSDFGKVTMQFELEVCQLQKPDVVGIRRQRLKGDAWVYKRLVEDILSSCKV
Details: at 10 µM
reported.property: residual activity

Provide Maternal embryonic leucine zipper kinase (Homo sapiens) (UniProt Q14680) residual activity reading for CCn1cnc2c(Nc3cccc(Cl)c3)nc(N[C@@H]3CCCC[C@@H]3N)nc21 . 18%

# return residual activity for O=[N+]([O-])/C=C/c1ccc2c(c1)OCO2 , test system: Maternal embryonic leucine zipper kinase (Homo sapiens) (UniProt Q14680) 84%

Write residual activity of N/C(=N\[N+](=O)[O-])N/N=C\c1ccc(-c2cccc([N+](=O)[O-])c2)o1 ; system used: Maternal embryonic leucine zipper kinase (Homo sapiens) (UniProt Q14680) 85%

Report residual activity under test system Maternal embryonic leucine zipper kinase (Homo sapiens) (UniProt Q14680) for CC(C)[C@H](CO)Nc1nc(Nc2cccc(Cl)c2)c2ncn(C(C)C)c2n1 . 18%

Under Maternal embryonic leucine zipper kinase (Homo sapiens) (UniProt Q14680), report residual activity for COc1ccc2c(c[n+](C)c3c4cc5c(cc4ccc23)OCO5)c1OC 31%

* * *

Give residual activity for every item shown.
Molecular target: Dual specificity mitogen-activated protein kinase kinase 1 (Homo sapiens) (UniProt Q02750)
Sequence (Q02750 whole entry): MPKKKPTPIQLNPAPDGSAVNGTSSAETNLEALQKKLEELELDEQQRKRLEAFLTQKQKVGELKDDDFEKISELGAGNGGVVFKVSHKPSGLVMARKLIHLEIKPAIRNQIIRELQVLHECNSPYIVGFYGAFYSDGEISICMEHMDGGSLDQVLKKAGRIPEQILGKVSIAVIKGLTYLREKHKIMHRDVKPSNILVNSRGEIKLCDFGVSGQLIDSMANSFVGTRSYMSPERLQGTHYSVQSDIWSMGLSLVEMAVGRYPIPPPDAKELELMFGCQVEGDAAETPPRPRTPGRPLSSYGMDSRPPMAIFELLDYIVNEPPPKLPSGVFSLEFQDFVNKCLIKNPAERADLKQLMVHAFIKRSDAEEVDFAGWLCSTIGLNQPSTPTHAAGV
Details: at 1 µM
Description: Millipore: Percentage of residual kinase activity of MAP2K1 at 1uM relative to control. Control inhibitor: Phosphoric acid* at 0.3uM. Buffer: 50 mM Tris pH 7.5, 0.2 mM EGTA, 0.1% ?-mercaptoethanol, 0.01% Brij-35
API: value field is a number in %; no unit string.

Give Dual specificity mitogen-activated protein kinase kinase 1 (Homo sapiens) (UniProt Q02750) residual activity for the following molecule: c1cc(-c2cnn3cc(-c4ccc(OCCN5CCCCC5)cc4)cnc23)ccn1 123

For Dual specificity mitogen-activated protein kinase kinase 1 (Homo sapiens) (UniProt Q02750), give residual activity of the listed molecule: O=C1NC(=O)c2c1c1c3ccccc3n3c1c1c2c2ccccc2n1C1CCC3O1 40

System Dual specificity mitogen-activated protein kinase kinase 1 (Homo sapiens) (UniProt Q02750). Read-out residual activity. Item O=c1[nH]c2ccccc2n1C1CCN(Cc2ccc(-c3nc4cc5[nH]cnc5cc4nc3-c3ccccc3)cc2)CC1 . Report value. 127

State residual activity on Dual specificity mitogen-activated protein kinase kinase 1 (Homo sapiens) (UniProt Q02750). Entry: CC(C)(C)c1cc(C=C(C#N)C#N)cc(Br)c1O 113

Answer with residual activity of COc1ccc2c(c1)/C(=C/c1cnc[nH]1)C(=O)N2 measured for Dual specificity mitogen-activated protein kinase kinase 1 (Homo sapiens) (UniProt Q02750). 62

Reference source for all entries: ChEMBL document CHEMBL2218924
